- experimental protocol: Tolerability in CD1 mice: hematology assays (Example 43)
- Type: in vivo
- experimental setup: 50 mg/kg s.c. twice per week for 6 weeks, blood
Strand notation (5' to 3'): a small letter for the sugar, then the base; units joined by * are phosphorothioate-linked, units joined directly phosphodiester-linked; [ ] holds rarer units or linkages, { } end groups; capitals alone tell only the bases. e = 2'-O-(2-methoxyethyl) (MOE); [5mC] = 5-methylcytosine; d = 2'-deoxy (DNA)
The substances listed here are annotated with their hemoglobin.
measured metric: hemoglobin (g/dL)

[
  {
    "substance": "ISIS 449709: 3-8-3, 4-8-4, 2-10-2, 3-10-3 or 4-10-4 MOE microwalk gapmer (Table 46) (antisense eG*e[5mC]*eA*e[5mC]*dA*dG*dT*dT*dT*d[5mC]*dT*dG*dG*d[5mC]*eA*eG*eG*e[5mC])",
    "measured metric": "hemoglobin",
    "endpoint value": 13.2
  },
  {
    "substance": "ISIS 449710: 3-8-3, 4-8-4, 2-10-2, 3-10-3 or 4-10-4 MOE microwalk gapmer (Table 46) (antisense e[5mC]*eA*e[5mC]*dA*dG*dT*dT*dT*d[5mC]*dT*dG*dG*d[5mC]*eA*eG*eG)",
    "measured metric": "hemoglobin",
    "endpoint value": 13.5
  },
  {
    "substance": "ISIS 449707: 3-8-3, 4-8-4, 2-10-2, 3-10-3 or 4-10-4 MOE microwalk gapmer (Table 46) (antisense e[5mC]*eA*e[5mC]*eA*dG*dT*dT*dT*d[5mC]*dT*dG*dG*e[5mC]*eA*eG*eG)",
    "measured metric": "hemoglobin",
    "endpoint value": 12.4
  },
  {
    "substance": "ISIS 449708: 3-8-3, 4-8-4, 2-10-2, 3-10-3 or 4-10-4 MOE microwalk gapmer (Table 46) (antisense eA*e[5mC]*eA*dG*dT*dT*dT*d[5mC]*dT*dG*dG*e[5mC]*eA*eG)",
    "measured metric": "hemoglobin",
    "endpoint value": 13.2
  },
  {
    "substance": "ISIS 449711: 3-8-3, 4-8-4, 2-10-2, 3-10-3 or 4-10-4 MOE microwalk gapmer (Table 46) (antisense eA*e[5mC]*dA*dG*dT*dT*dT*d[5mC]*dT*dG*dG*d[5mC]*eA*eG)",
    "measured metric": "hemoglobin",
    "endpoint value": 13.3
  }
]

###

- experimental protocol: Hematology assays in cynomolgus monkeys (Example 46)
- Type: in vivo
- experimental setup: Day 45
Strand notation (5' to 3'): a small letter for the sugar, then the base; units joined by * are phosphorothioate-linked, units joined directly phosphodiester-linked; [ ] holds rarer units or linkages, { } end groups; capitals alone tell only the bases. e = 2'-O-(2-methoxyethyl) (MOE); [5mC] = 5-methylcytosine; d = 2'-deoxy (DNA)
The reader will find reported MCHC values listed item by item below.

[
  {
    "substance": "ISIS 449708: 3-8-3, 4-8-4, 2-10-2, 3-10-3 or 4-10-4 MOE microwalk gapmer (Table 46) (antisense eA*e[5mC]*eA*dG*dT*dT*dT*d[5mC]*dT*dG*dG*e[5mC]*eA*eG)",
    "MCHC (g/dL)": 30.6
  },
  {
    "substance": "ISIS 449710: 3-8-3, 4-8-4, 2-10-2, 3-10-3 or 4-10-4 MOE microwalk gapmer (Table 46) (antisense e[5mC]*eA*e[5mC]*dA*dG*dT*dT*dT*d[5mC]*dT*dG*dG*d[5mC]*eA*eG*eG)",
    "MCHC (g/dL)": 30.4
  }
]
